Assay: Tryptophan fluorescent binding assay
Settings: tryptophan fluorescence; 50 µM peptide, lipid titrated 0-5000 µM; phosphate buffered saline 1X, pH 7.4; values as lipid per peptide
Peptide text beside a SMILES is read from it.
Measured Lipid Concentration-induced 50% Peptide Binding (L/P), POPC Vesicle, listed per entry for reference.
Express it in L/P; write the number only.

compound	numeric-result
CC(C)C[C@H](NC(=O)CN)C(=O)N[C@@H](CC(C)C)C(=O)N[C@@H](CC(=O)O)C(=O)N[C@@H](CC(C)C)C(=O)N[C@@H](CC(C)C)C(=O)N[C@@H](Cc1c[nH]cn1)C(=O)N[C@@H](CC(C)C)C(=O)N[C@@H](CC(C)C)C(=O)N[C@@H](CC(C)C)C(=O)N[C@@H](CCC(=O)O)C(=O)N[C@@H](C)C(=O)N[C@@H](C)C(=O)NCC(=O)N[C@@H](Cc1c[nH]c2ccccc12)C(N)=O [DHE] (H-GLLDLLHLLLEAAGW-NH2)	1.00
CC(C)C[C@H](NC(=O)CN)C(=O)N[C@@H](CC(C)C)C(=O)N[C@@H](CC(=O)O)C(=O)N[C@@H](CC(C)C)C(=O)N[C@@H](CC(C)C)C(=O)N[C@@H](CCCCN)C(=O)N[C@@H](CC(C)C)C(=O)N[C@@H](CC(C)C)C(=O)N[C@@H](CC(C)C)C(=O)N[C@@H](CCCCN)C(=O)N[C@@H](C)C(=O)N[C@@H](C)C(=O)NCC(=O)N[C@@H](Cc1c[nH]c2ccccc12)C(N)=O [DKK] (H-GLLDLLKLLLKAAGW-NH2)	2.75

Request: Answer with the recorded Lipid Concentration-induced 50% Peptide Binding (L/P), POPC Vesicle for the compound listed here: CC(C)C[C@H](NC(=O)CN)C(=O)N[C@@H](CC(C)C)C(=O)N[C@@H](CCC(=O)O)C(=O)N[C@@H](CC(C)C)C(=O)N[C@@H](CC(C)C)C(=O)N[C@@H](Cc1c[nH]cn1)C(=O)N[C@@H](CC(C)C)C(=O)N[C@@H](CC(C)C)C(=O)N[C@@H](CC(C)C)C(=O)N[C@@H](CCC(=O)O)C(=O)N[C@@H](C)C(=O)N[C@@H](C)C(=O)NCC(=O)N[C@@H](Cc1c[nH]c2ccccc12)C(N)=O [EHE] (H-GLLELLHLLLEAAGW-NH2)
Result: 0.44

----------
Experiment: Tryptophan fluorescent binding assay
Conditions: tryptophan fluorescence; 50 µM peptide, lipid titrated 0-5000 µM; phosphate buffered saline 1X, pH 7.4; values as lipid per peptide
Peptide text beside a SMILES is read from it.
Measured Lipid Concentration-induced 50% Peptide Binding (L/P), POPC Vesicle, listed per entry for reference.
Express it in L/P; write the number only.

Worked examples follow.
molecule	units-label	numeric-result
CC(C)C[C@H](NC(=O)CN)C(=O)N[C@@H](CC(C)C)C(=O)N[C@@H](CCCCN)C(=O)N[C@@H](CC(C)C)C(=O)N[C@@H](CC(C)C)C(=O)N[C@@H](Cc1c[nH]cn1)C(=O)N[C@@H](CC(C)C)C(=O)N[C@@H](CC(C)C)C(=O)N[C@@H](CC(C)C)C(=O)N[C@@H](CCCCN)C(=O)N[C@@H](C)C(=O)N[C@@H](C)C(=O)NCC(=O)N[C@@H](Cc1c[nH]c2ccccc12)C(N)=O [KHK] (H-GLLKLLHLLLKAAGW-NH2)	L/P	0.17
CC(C)C[C@H](NC(=O)CN)C(=O)N[C@@H](CC(C)C)C(=O)N[C@@H](CCCCN)C(=O)N[C@@H](CC(C)C)C(=O)N[C@@H](CC(C)C)C(=O)N[C@@H](Cc1c[nH]cn1)C(=O)N[C@@H](CC(C)C)C(=O)N[C@@H](CC(C)C)C(=O)N[C@@H](CC(C)C)C(=O)N[C@@H](Cc1c[nH]cn1)C(=O)N[C@@H](C)C(=O)N[C@@H](C)C(=O)NCC(=O)N[C@@H](Cc1c[nH]c2ccccc12)C(N)=O [KHH] (H-GLLKLLHLLLHAAGW-NH2)	L/P	3.50
CC(C)C[C@H](NC(=O)CN)C(=O)N[C@@H](CC(C)C)C(=O)N[C@@H](Cc1c[nH]cn1)C(=O)N[C@@H](CC(C)C)C(=O)N[C@@H](CC(C)C)C(=O)N[C@@H](Cc1c[nH]cn1)C(=O)N[C@@H](CC(C)C)C(=O)N[C@@H](CC(C)C)C(=O)N[C@@H](CC(C)C)C(=O)N[C@@H](Cc1c[nH]cn1)C(=O)N[C@@H](C)C(=O)N[C@@H](C)C(=O)NCC(=O)N[C@@H](Cc1c[nH]c2ccccc12)C(N)=O [HHH] (H-GLLHLLHLLLHAAGW-NH2)	L/P	0.46
CC(C)C[C@H](NC(=O)CN)C(=O)N[C@@H](CC(C)C)C(=O)N[C@@H](Cc1c[nH]cn1)C(=O)N[C@@H](CC(C)C)C(=O)N[C@@H](CC(C)C)C(=O)N[C@@H](Cc1c[nH]cn1)C(=O)N[C@@H](CC(C)C)C(=O)N[C@@H](CC(C)C)C(=O)N[C@@H](CC(C)C)C(=O)N[C@@H](CCCCN)C(=O)N[C@@H](C)C(=O)N[C@@H](C)C(=O)NCC(=O)N[C@@H](Cc1c[nH]c2ccccc12)C(N)=O [HHK] (H-GLLHLLHLLLKAAGW-NH2)	L/P	0.68
CC(C)C[C@H](NC(=O)CN)C(=O)N[C@@H](CC(C)C)C(=O)N[C@@H](CCC(=O)O)C(=O)N[C@@H](CC(C)C)C(=O)N[C@@H](CC(C)C)C(=O)N[C@@H](CCCCN)C(=O)N[C@@H](CC(C)C)C(=O)N[C@@H](CC(C)C)C(=O)N[C@@H](CC(C)C)C(=O)N[C@@H](CCC(=O)O)C(=O)N[C@@H](C)C(=O)N[C@@H](C)C(=O)NCC(=O)N[C@@H](Cc1c[nH]c2ccccc12)C(N)=O [EKE] (H-GLLELLKLLLEAAGW-NH2)	L/P	2.75
CC(C)C[C@H](NC(=O)CN)C(=O)N[C@@H](CC(C)C)C(=O)N[C@@H](Cc1c[nH]cn1)C(=O)N[C@@H](CC(C)C)C(=O)N[C@@H](CC(C)C)C(=O)N[C@@H](CCC(=O)O)C(=O)N[C@@H](CC(C)C)C(=O)N[C@@H](CC(C)C)C(=O)N[C@@H](CC(C)C)C(=O)N[C@@H](CCC(=O)O)C(=O)N[C@@H](C)C(=O)N[C@@H](C)C(=O)NCC(=O)N[C@@H](Cc1c[nH]c2ccccc12)C(N)=O [HEE] (H-GLLHLLELLLEAAGW-NH2)	L/P	0.58
CC(C)C[C@H](NC(=O)CN)C(=O)N[C@@H](CC(C)C)C(=O)N[C@@H](Cc1c[nH]cn1)C(=O)N[C@@H](CC(C)C)C(=O)N[C@@H](CC(C)C)C(=O)N[C@@H](CCCCN)C(=O)N[C@@H](CC(C)C)C(=O)N[C@@H](CC(C)C)C(=O)N[C@@H](CC(C)C)C(=O)N[C@@H](Cc1c[nH]cn1)C(=O)N[C@@H](C)C(=O)N[C@@H](C)C(=O)NCC(=O)N[C@@H](Cc1c[nH]c2ccccc12)C(N)=O [HKH] (H-GLLHLLKLLLHAAGW-NH2)	L/P	0.18

Request: Answer with the recorded Lipid Concentration-induced 50% Peptide Binding (L/P), POPC Vesicle for the molecule listed here: CC(C)C[C@H](NC(=O)CN)C(=O)N[C@@H](CC(C)C)C(=O)N[C@@H](CCC(=O)O)C(=O)N[C@@H](CC(C)C)C(=O)N[C@@H](CC(C)C)C(=O)N[C@@H](CCC(=O)O)C(=O)N[C@@H](CC(C)C)C(=O)N[C@@H](CC(C)C)C(=O)N[C@@H](CC(C)C)C(=O)N[C@@H](CCC(=O)O)C(=O)N[C@@H](C)C(=O)N[C@@H](C)C(=O)NCC(=O)N[C@@H](Cc1c[nH]c2ccccc12)C(N)=O [EEE] (H-GLLELLELLLEAAGW-NH2)
Result: 1.33
